meta.source: patent US20210095028A1

Reported Bottom (best-fit) values for a set of binders
Target: T1, human TIGIT over-expressed on cells (human, UniProt Q495A1 22-244)
T1 construct: also called CHO-K1/human TIGIT cells; CHO cells expressing human TIGIT
T1 sequence: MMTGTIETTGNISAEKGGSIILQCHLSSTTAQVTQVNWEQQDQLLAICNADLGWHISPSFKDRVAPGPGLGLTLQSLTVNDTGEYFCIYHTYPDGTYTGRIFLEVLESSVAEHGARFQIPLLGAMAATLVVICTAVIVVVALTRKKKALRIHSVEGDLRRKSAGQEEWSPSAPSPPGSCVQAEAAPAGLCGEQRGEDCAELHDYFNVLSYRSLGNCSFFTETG
Assay: FACS, CHO-K1 cells over-expressing human TIGIT
// return just the number, without any unit appended

| binder | Bottom (best-fit) |
| --- | --- |
| 100C4E7D11 chimeric (antibody, V domains shown, also called 100C4 Chimeric) VH: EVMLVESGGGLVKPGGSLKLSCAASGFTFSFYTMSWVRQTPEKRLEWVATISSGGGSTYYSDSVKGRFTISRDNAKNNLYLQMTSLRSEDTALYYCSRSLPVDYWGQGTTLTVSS VL: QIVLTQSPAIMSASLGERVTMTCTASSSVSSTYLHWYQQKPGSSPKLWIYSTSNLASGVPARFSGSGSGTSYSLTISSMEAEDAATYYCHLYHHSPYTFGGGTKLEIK | 4160 |

Now for another entry.
Q: # return recorded Bottom (best-fit) for input 64G1E9B4 chimeric (antibody, V domains shown, also called 64G1 Chimeric) VH: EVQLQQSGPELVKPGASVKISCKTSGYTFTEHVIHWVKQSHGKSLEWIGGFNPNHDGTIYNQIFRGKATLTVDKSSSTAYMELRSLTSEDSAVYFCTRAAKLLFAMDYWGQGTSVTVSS VL: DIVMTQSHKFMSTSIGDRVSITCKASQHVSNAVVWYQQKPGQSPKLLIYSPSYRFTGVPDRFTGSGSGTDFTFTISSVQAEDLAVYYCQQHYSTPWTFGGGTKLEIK
Result: 3600
